target: KRAS G12D (Homo sapiens, UniProt P01116, G12D); assay: HTRF KRAS-SOS1 interaction assay, KRAS G12D; details: binned ≤2 μM / >2 μM, read-out: Inhibition of KRAS G12D (IC50)
Sequence (P01116 1-188 isoform P01116-2 G12D): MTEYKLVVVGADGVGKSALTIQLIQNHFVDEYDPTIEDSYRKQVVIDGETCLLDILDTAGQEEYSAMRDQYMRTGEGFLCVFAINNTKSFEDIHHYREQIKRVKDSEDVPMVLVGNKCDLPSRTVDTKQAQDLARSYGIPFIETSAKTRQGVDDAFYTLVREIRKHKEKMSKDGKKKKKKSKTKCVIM
IC50 by entry:

What IC50 value was documented for this molecule, N#Cc1c(N)sc2c(F)ccc(-c3c(C(F)(F)F)c4c5c(nc(OC[C@@]67CCCN6C[C@H](F)C7)nc5c3F)N([C@H](CC3CC(F)(F)C3)c3cccnc3N)CCO4)c12 (single isomer, unassigned) ?
≤ 2 µM

Then what about the molecule C[C@H](c1cc(Cl)cnc1N)N1CCOc2c(C(F)(F)F)c(-c3ccc(F)c4sc(N)c(C#N)c34)c(F)c3nc(OCC4(CN5CCC6(CC5)CC6(F)F)CC4)nc1c23 ?
≤ 2 µM

Then what about the molecule CC(c1cccnc1N)N1CCOc2c(Cl)c(-c3ccc(F)c4sc(N)c(C#N)c34)c(F)c3nc(OC[C@@]45CCCN4C[C@H](F)C5)nc1c23 (single isomer, unassigned) ?
≤ 2 µM

Then what about the molecule C[S+]([O-])CCC[C@H](c1cccnc1N)N1CCOc2c(C(F)(F)F)c(-c3ccc(F)c4sc(N)c(C#N)c34)c(F)c3nc(OC[C@@]45CCCN4C[C@H](F)C5)nc1c23 (mixture of isomers) ?
≤ 2 µM

Then what about the molecule CCN1CC[C@H](OC)[C@H]1[C@H](C)Oc1nc2c3c(c(C(F)(F)F)c(-c4ccc(F)c5sc(N)c(C#N)c45)c(F)c3n1)OCCN2[C@H](C)c1cccnc1N ?
≤ 2 µM

Then what about the molecule C[C@H](c1cccnc1N)N1CCOc2c(C(F)(F)F)c(-c3ccc(F)c4sc(N)c(C#N)c34)c(F)c3nc(OC[C@@]45CCCN4C[C@H](F)C5)nc1c23 (single isomer, unassigned) ?
≤ 2 µM

Then what about the molecule Cc1cnc(N)c([C@@H](C)N2CCOc3c(C(F)(F)F)c(-c4ccc(F)c5sc(N)c(C#N)c45)c(F)c4nc(OC[C@@]56CCCN5C[C@H](F)C6)nc2c34)n1 (single isomer, unassigned) [Compound 718] ?
> 2 µM

Then what about the molecule C[C@H](c1cccnc1N)N1CCOc2c(Cl)c(-c3ccc(F)c4sc(N)c(C#N)c34)c(F)c3nc(OC[C@@]45CCCN4C[C@H](F)C5)nc1c23 ?
≤ 2 µM

Then what about the molecule C[C@H](c1cc(Cl)cnc1N)N1CCOc2c(C(F)(F)F)c(-c3ccc(F)c4sc(N)c(C#N)c34)c(F)c3nc(OCC4(CN5CCC(F)CC5)CC4)nc1c23 ?
≤ 2 µM

Then what about the molecule C[C@H](c1cccnc1N)N1CCOc2c(C(F)(F)F)c(-c3ccc(F)c4sc(N)c(C#N)c34)c(F)c3nc(OCC4(CN5CCC(=C(F)F)CC5)CC4)nc1c23 (single isomer, unassigned) [Compound 693] ?
≤ 2 µM

Then what about the molecule N#Cc1c(N)sc2c(F)ccc(-c3c(C(F)(F)F)c4c5c(nc(OC[C@@]67CCCN6C[C@H](F)C7)nc5c3F)N([C@H](CCC3CC(F)(F)C3)c3cccnc3N)CCO4)c12 (single isomer, unassigned) [Compound 689] ?
> 2 µM

Then what about the molecule C[C@H](c1cccnc1N)N1CCOc2c(Cl)c(-c3ccc(F)c4sc(N)c(C#N)c34)c(F)c3nc(OC[C@@H]4CCCN4C)nc1c23 (single isomer, unassigned) ?
≤ 2 µM

Then what about the molecule C[C@H](c1cccnc1N)N1CCOc2c(Cl)c(-c3ccc(F)c4sc(N)c(C#N)c34)c(F)c3nc(OC[C@@]45CCCN4CC(=C(F)F)C5)nc1c23 (atropisomer, axis not shown) ?
≤ 2 µM

Then what about the molecule C[C@H](c1nccnc1N)N1CCOc2c(C(F)(F)F)c(-c3ccc(F)c4sc(N)c(C#N)c34)c(F)c3nc(OC[C@@]45CCCN4C[C@H](F)C5)nc1c23 (single isomer, unassigned) [Compound 760] ?
≤ 2 µM

Then what about the molecule N#Cc1c(N)sc2cccc(-c3c(Cl)c4c5c(nc(OC[C@@]67CCCN6C[C@H](F)C7)nc5c3F)N([C@@H](c3cccnc3N)C(F)F)CCO4)c12 (single isomer, unassigned) [Compound 802] ?
> 2 µM

Then what about the molecule C[C@H](c1cccnc1N)N1CCOc2c(C(F)(F)F)c(-c3ccc(F)c4sc(N)c(C#N)c34)c(F)c3nc(OCC4(CN5CCC6(CC5)CC6(F)F)CC4)nc1c23 (atropisomer, axis not shown) ?
≤ 2 µM

Then what about the molecule CC(=O)c1c(F)ccc2cc(O)cc(-c3nc4c5c(nc(OC[C@@]67CCCN6C[C@H](F)C7)nc5c3F)N(C(C)c3cccnc3N)CCO4)c12 (mixture of isomers) ?
≤ 2 µM
